# System Tested: HhIYD (Haliscomenobacter hydrossis, UniProt F4KU78)
# Sequence (F4KU78 whole entry): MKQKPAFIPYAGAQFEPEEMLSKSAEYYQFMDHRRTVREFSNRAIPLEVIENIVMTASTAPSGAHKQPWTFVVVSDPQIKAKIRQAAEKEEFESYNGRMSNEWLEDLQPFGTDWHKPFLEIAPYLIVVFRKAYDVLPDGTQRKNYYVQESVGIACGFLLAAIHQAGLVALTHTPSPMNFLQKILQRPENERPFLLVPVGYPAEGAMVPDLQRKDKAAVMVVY
Observed Property: pKi
Numbers only, as −log10 of the molar value.

Return reported pKi for target or system HhIYD (Haliscomenobacter hydrossis, UniProt F4KU78), item N[C@@H](Cc1ccc(O)c(F)c1)C(=O)O .
4.97

* * *

Reported Kd values, HhIYD containing FMNox (Haliscomenobacter hydrossis, UniProt F4KU78).
Numbers only, in µM.

INSERT INTO measurements (given_smiles, unit_of_measurement, reported_value) VALUES
  ('N#Cc1cc(C[C@H](N)C(=O)O)cc(I)c1O', 'µM', 7.3),
  ('COc1cc(C[C@H](N)C(=O)O)cc(I)c1O', 'µM', 4.3),
  ('N[C@@H](Cc1cc(F)c(O)c(I)c1)C(=O)O', 'µM', 6.9);

# next molecule below
Return reported Kd for target or system HhIYD containing FMNox (Haliscomenobacter hydrossis, UniProt F4KU78), item Cc1cc(C[C@H](N)C(=O)O)cc(I)c1O .
1.7

* * *

# System Tested: HsIYD containing FMNox (Homo sapiens)
# Sequence (Q6PHW0 with tags, fused parts or gaps): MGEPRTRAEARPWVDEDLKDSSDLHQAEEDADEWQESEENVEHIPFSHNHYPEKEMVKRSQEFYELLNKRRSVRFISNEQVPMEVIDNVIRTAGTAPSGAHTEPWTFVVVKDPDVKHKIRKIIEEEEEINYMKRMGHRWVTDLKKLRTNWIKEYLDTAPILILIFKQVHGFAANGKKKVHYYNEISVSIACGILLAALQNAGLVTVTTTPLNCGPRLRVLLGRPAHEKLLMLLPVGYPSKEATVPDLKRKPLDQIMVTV
Observed Property: pKd
Numbers only, as −log10 of the molar value.

Look over these answered cases.
INSERT INTO assay_data (given_smiles, system_tested, reported_value) VALUES
  ('COc1cc(C[C@H](N)C(=O)O)cc(I)c1O', 'HsIYD containing FMNox (Homo sapiens)', 5.20),
  ('N[C@@H](Cc1cc(F)c(O)c(I)c1)C(=O)O', 'HsIYD containing FMNox (Homo sapiens)', 6.05),
  ('Cc1cc(C[C@H](N)C(=O)O)cc(I)c1O', 'HsIYD containing FMNox (Homo sapiens)', 5.59);

# next compound below
Tell me its pKd given N#Cc1cc(C[C@H](N)C(=O)O)cc(I)c1O as the entry.
5.15

Sourced from paper PMC10073337
